- TARGET_ENTITY: UniProtKB P41595
- Sequence (P41595 whole entry): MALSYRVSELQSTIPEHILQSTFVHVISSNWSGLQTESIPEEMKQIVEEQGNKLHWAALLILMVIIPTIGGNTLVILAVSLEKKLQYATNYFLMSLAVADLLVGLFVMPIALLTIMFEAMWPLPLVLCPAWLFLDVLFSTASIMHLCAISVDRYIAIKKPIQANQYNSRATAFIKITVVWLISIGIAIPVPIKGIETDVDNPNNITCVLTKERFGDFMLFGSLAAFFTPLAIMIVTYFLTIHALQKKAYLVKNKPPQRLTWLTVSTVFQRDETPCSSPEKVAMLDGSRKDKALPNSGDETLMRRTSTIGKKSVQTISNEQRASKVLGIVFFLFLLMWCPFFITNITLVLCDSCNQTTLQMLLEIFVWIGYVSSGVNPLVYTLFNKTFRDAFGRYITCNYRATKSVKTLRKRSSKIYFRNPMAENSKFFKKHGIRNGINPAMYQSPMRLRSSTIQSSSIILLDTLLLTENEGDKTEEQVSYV
- TEST_METHOD_NOTES: SafetyScreen: 5-HT2B Human Serotonin GPCR [125I](±)DOI Binding Agonist Radioligand LeadHunter Assay, catalogue number: 1333
- ASSAY_CONTEXT: Test compound concentration 10.0 uM
Below, each of the compounds is paired with its reported inhibition value.
Write it as a number; the unit % goes unstated.

Consider the following illustrative entries.
> print(dat)
                           substance.smiles  number
1  Cc1nn(C)cc1-c1cc2c(N[C@H](c3ccc4c(c3)S(=O)(=O)CCC4)C(C)C)ncnc2[nH]1      43
2  CC(C)[C@@H](Nc1ncnc2[nH]c(C(=O)N[C@@H]3CCN(C)C3)cc12)c1ccc2c(c1)S(=O)(=O)CCC2       6
3  Cn1ncc(-c2cc3c(N[C@@H](c4ccc5c(n4)OCCO5)C(C)(C)C)ncnc3[nH]2)c1C#N      -5

Consider the record given below.
Summary: `C[C@H](C(=O)O)[C@@H](NC(=O)c1ncnc2[nH]ccc12)c1ccc(Br)cc1` , UniProtKB P41595, inhibition = -4
